All figures here come from patent US6992083B2.

# testedSystem: human adenosine A2A receptor (Homo sapiens)
# Construct: expressed in transfected cells; host or cells: CHO cells, Semliki Forest virus expression system; washed membrane preparation
# Sequence (P29274 whole entry): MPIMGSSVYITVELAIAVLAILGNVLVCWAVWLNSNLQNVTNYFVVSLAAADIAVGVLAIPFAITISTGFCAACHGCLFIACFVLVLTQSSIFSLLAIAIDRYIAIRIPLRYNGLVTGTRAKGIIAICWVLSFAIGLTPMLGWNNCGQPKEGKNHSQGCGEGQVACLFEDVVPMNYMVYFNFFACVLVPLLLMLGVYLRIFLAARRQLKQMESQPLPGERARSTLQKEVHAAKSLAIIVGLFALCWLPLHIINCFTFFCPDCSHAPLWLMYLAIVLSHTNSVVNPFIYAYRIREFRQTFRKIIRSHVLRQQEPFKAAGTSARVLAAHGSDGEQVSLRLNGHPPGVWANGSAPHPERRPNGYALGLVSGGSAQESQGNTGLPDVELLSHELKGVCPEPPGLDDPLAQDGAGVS
# assayComment: [3H]-SCH-58261 binding assay, human adenosine A2A receptor
# conditionSet: recombinant receptor in CHO cell membranes, [3H]-SCH-58261 1 nM, Ki by Cheng-Prussoff; read-out: hA2a pKi (converted)
Ki for assorted molecules
Dear colleague, please return just the value in µM, with no unit written.

These recorded examples may help you get a feel for the data.
COc1ccc(-c2ccc(F)cc2)c2oc(NC(=O)c3ccc(C)nc3)nc12 :: 0.0129
COc1ccc(-c2ccc(F)cc2)c2oc(NC(=O)c3ccnc(C)c3)nc12 :: 0.0158
COc1ccc(-c2ccc(F)cc2)c2oc(NC(=O)c3ccnc(N4CCOCC4)c3)nc12 :: 0.00851
COc1ccc(C2CCOCC2)c2oc(NC(=O)c3ccnc(N4CCOCC4)c3)nc12 :: 0.0219
COc1ccc(C2CCOCC2)c2oc(NC(=O)c3ccc(F)cc3)nc12 :: 0.0219
COCCN(C)Cc1ccc(C(=O)Nc2nc3c(OC)ccc(-c4ccccc4)c3o2)cc1 :: 0.0224
COCc1cc(C(=O)Nc2nc3c(OC)ccc(-c4ccc(F)cc4)c3o2)ccn1 :: 0.0302
COc1ccc(-c2ccc(F)cc2)c2oc(NC(=O)c3ccc(F)cc3)nc12 :: 0.00646

Measured Ki for this entry COc1ccc(-c2ccccc2)c2oc(NC(=O)c3ccc(F)cc3)nc12 on human adenosine A2A receptor (Homo sapiens): 0.012

Ki for human adenosine A2A receptor (Homo sapiens) with input COc1ccc(-c2ccc(F)cc2)c2oc(NC(=O)c3ccnc(CCl)c3)nc12 equals 0.0229
